- Test system: P. aeruginosa PAO1
- ASSAY: MIC determination, broth microdilution (CLSI)
- Format: cell-based
- STATED CONDITIONS: Pseudomonas aeruginosa, PAO1, strain 6
Hi! Could you tag entries with MIC below 8 µg/mL as t, and those at or above as f? Much appreciated.

INSERT INTO results (compound, group) VALUES
  ('CC1(C)[C@H](NC(=O)/C(=N\OCCOc2ccc(C(=N)NCCCN)cc2)c2csc(N)n2)C(=O)N1OS(=O)(=O)O [Example 83]', 't'),
  ('C[C@H]1[C@H](NC(=O)/C(=N\OCCOCc2cc(C(=N)N)cs2)c2csc(N)n2)C(=O)N1S(=O)(=O)O [Example 56]', 'f'),
  ('C[C@H]1[C@H](NC(=O)/C(=N\OCCOc2cccc(C(=N)N)c2)c2csc(N)n2)C(=O)N1S(=O)(=O)O [Example 53]', 'f');

hey, is MIC for CC1(C)[C@H](NC(=O)/C(=N\OCCOc2ccc(C(=N)N[C@H](CN)CO)cc2)c2csc(N)n2)C(=O)N1OS(=O)(=O)O [Example 85] lower than 8 µg/mL or not?
t

hey, is MIC for CC1(C)[C@H](NC(=O)/C(=N\O[C@H](COc2ccc(C(=N)NC(CN)CN)cc2)C(=O)O)c2csc(N)n2)C(=O)N1OS(=O)(=O)O [Example 103] lower than 8 µg/mL or not?
f

hey, is MIC for N=C(N)c1ccc(OCCO/N=C(\C(=O)NC2C(=O)N(OS(=O)(=O)O)C23CCCC3)c2csc(N)n2)cc1 (stereo not shown) [Example 16] lower than 8 µg/mL or not?
f

hey, is MIC for CC1(C)[C@H](NC(=O)/C(=N\O[C@@H](COc2ccc(C(=N)NCC3CCCN3)cc2)C(=O)O)c2csc(N)n2)C(=O)N1OS(=O)(=O)O (stereo partly shown) [Example 98] lower than 8 µg/mL or not?
t

hey, is MIC for CN(C)C(=O)[C@@H]1C[C@H](NC(=N)c2ccc(OCCO/N=C(\C(=O)N[C@@H]3C(=O)N(OS(=O)(=O)O)C3(C)C)c3csc(N)n3)cc2)CN1 [Example 42] lower than 8 µg/mL or not?
f

hey, is MIC for CC1(C)[C@H](NC(=O)/C(=N\OCCOc2cc(C(=N)N)ccn2)c2csc(N)n2)C(=O)N1OS(=O)(=O)O [Example 22] lower than 8 µg/mL or not?
f

---

Here, each record is paired with measured MIC data.
- Test system: A. baumannii ATCC15308
- ASSAY: MIC determination, broth microdilution (CLSI)
- Assay type: cell-based
- STATED CONDITIONS: Acinetobacter baumannii, ATCC15308, strain 9
Form entry: value (µg/mL) — number only.

Guide cases for MIC, answers given:
INSERT INTO assay_data (molecule, target_system, reported_result) VALUES
  ('CC1(C)[C@H](NC(=O)/C(=N\OCCOc2ccc(C(=N)N)cc2)c2csc(N)n2)C(=O)N1OS(=O)(=O)O', 'A. baumannii ATCC15308', 1),
  ('CC1(C)[C@H](NC(=O)/C(=N\O[C@H](COc2ccc(C(=N)NCCNc3ncccn3)cc2)C(=O)O)c2csc(N)n2)C(=O)N1OS(=O)(=O)O', 'A. baumannii ATCC15308', 32),
  ('C[C@H]1[C@H](NC(=O)/C(=N\OCCOc2ccc(C(=N)NCCOC=O)cc2)c2csc(N)n2)C(=O)N1S(=O)(=O)O', 'A. baumannii ATCC15308', 2),
  ('CN(C)C(=O)[C@@H]1C[C@H](NC(=N)c2ccc(OCCO/N=C(\C(=O)N[C@@H]3C(=O)N(OS(=O)(=O)O)C3(C)C)c3csc(N)n3)cc2)CN1', 'A. baumannii ATCC15308', 8),
  ('CC1(C)[C@H](NC(=O)/C(=N\O[C@@H](COc2ccc(C(=N)NC3CNCC3N)cc2)C(=O)O)c2csc(N)n2)C(=O)N1OS(=O)(=O)O (stereo partly drawn)', 'A. baumannii ATCC15308', 2);

# query: MIC of entry "C[C@H]1[C@H](NC(=O)/C(=N\OCCOc2ccc(C(=N)N)cc2CO)c2csc(N)n2)C(=O)N1S(=O)(=O)O"
1

---

- Tested on: strain 19
- ASSAY: MIC determination, broth microdilution (CLSI)
- Assay type: cell-based
Here, each record is paired with measured MIC data.

Guide cases for MIC, answers given:
INSERT INTO assay_data (item_smiles, reported_result) VALUES
  ('C[C@H]1[C@H](NC(=O)/C(=N\OCCOc2ccc(C(=N)N)c(O)c2)c2csc(N)n2)C(=O)N1S(=O)(=O)O', '0.125 µg/mL'),
  ('C[C@H]1[C@H](NC(=O)/C(=N\OCCOc2ccc(C(=N)N)cc2N)c2csc(N)n2)C(=O)N1S(=O)(=O)O', '2 µg/mL'),
  ('C[C@H]1[C@H](NC(=O)/C(=N\OCCOc2nc(C(=N)N)cs2)c2csc(N)n2)C(=O)N1S(=O)(=O)O', '0.125 µg/mL');

Now for the molecule whose MIC we want.
# query: MIC of entry "C[C@H]1[C@H](NC(=O)/C(=N\OCc2cc(C(=N)N)cs2)c2csc(N)n2)C(=O)N1S(=O)(=O)O"
1 µg/mL

---

Here, each record is paired with measured strain 8 MIC data.
- System: P. aeruginosa 2297-con (AmpC derepressed)
- ASSAY: MIC determination, broth microdilution (CLSI)
- Format: cell-based
- STATED CONDITIONS: strain 8
Form entry: value (µg/mL) — number only.

Guide cases for strain 8 MIC, answers given:
INSERT INTO measurements (molecule, target_system, reported_result) VALUES
  ('CC1(C)[C@H](NC(=O)/C(=N\O[C@@H](COc2ccc(C(=N)NC3CC3N)cc2)C(=O)O)c2csc(N)n2)C(=O)N1OS(=O)(=O)O (single isomer, unassigned) [Example 100A]', 'P. aeruginosa 2297-con (AmpC derepressed)', 4),
  ('CC1(C)[C@H](NC(=O)/C(=N\OC(COc2ccc(C(=N)N)nc2)C(=O)O)c2csc(N)n2)C(=O)N1OS(=O)(=O)O (mixture of isomers) [Example 36A]', 'P. aeruginosa 2297-con (AmpC derepressed)', 4),
  ('CC1(C)[C@H](NC(=O)/C(=N\OC(COc2ccc(C(=N)N)c(O)c2)C(=O)O)c2csc(N)n2)C(=O)N1OS(=O)(=O)O (mixture of isomers) [Example 34B]', 'P. aeruginosa 2297-con (AmpC derepressed)', 32),
  ('CC1(C)[C@H](NC(=O)/C(=N\OC(COc2ccc(C(=N)N)cc2)C(=O)O)c2csc(N)n2)C(=O)N1OS(=O)(=O)O (mixture of isomers) [Example 27B]', 'P. aeruginosa 2297-con (AmpC derepressed)', 16);

# query: strain 8 MIC of entry CC1(C)[C@H](NC(=O)/C(=N\O[C@@H](COc2ccc(C(=N)NC3CC3N)cc2)C(=O)O)c2csc(N)n2)C(=O)N1OS(=O)(=O)O (single isomer, unassigned) [Example 100B]
16

---

- Tested on: Bacteria
- ASSAY: MIC determination in combination with β-lactamase inhibitors (constant 4 μg/mL)
- Assay type: cell-based
- STATED CONDITIONS: strain 19; E. coli J62-TEM-3 + 4 μg/mL clavulanic acid
PARAMETER MEASURED: MIC strain 19 (E. coli J62-TEM-3 + 4 μg/mL clavulanic acid) (µg/mL)
Form entry: value (µg/mL) — number only.

INSERT INTO results (compound, unit_abbrev, reported_result) VALUES
  ('C[C@H]1[C@H](NC(=O)/C(=N\OCCOc2ccc(C(=N)N)cc2)c2nc(N)sc2Cl)C(=O)N1S(=O)(=O)O', 'µg/mL', 2),
  ('C[C@H]1[C@H](NC(=O)/C(=N\OCCCOc2ccc(NC(=N)N)cc2)c2csc(N)n2)C(=O)N1S(=O)(=O)O', 'µg/mL', 4),
  ('Cc1sc(C(=N)N)nc1OCCO/N=C(\C(=O)N[C@@H]1C(=O)N(OS(=O)(=O)O)C1(C)C)c1csc(N)n1', 'µg/mL', 1),
  ('C[C@@H]1[C@H](NC(=O)/C(=N\OCCCOc2ccc(C(=N)N)cc2)c2csc(N)n2)C(=O)N1S(=O)(=O)O', 'µg/mL', 2);

# query: MIC strain 19 (E. coli J62-TEM-3 + 4 μg/mL clavulanic acid) of entry CC1(C)[C@H](NC(=O)/C(=N\OCCOc2ccc(C3=NCC(CN)N3)cc2)c2csc(N)n2)C(=O)N1OS(=O)(=O)O (stereo partly drawn)
0.125

---

- Test system: Bacteria
- ASSAY: MIC determination in combination with β-lactamase inhibitors (constant 4 μg/mL)
- Type: cell-based
- STATED CONDITIONS: strain 19; E. coli J62-TEM-3 + 4 μg/mL clavulanic acid
Here, each record is paired with measured MIC strain 19 (E. coli J62-TEM-3 + 4 μg/mL clavulanic acid) data.
Form entry: value (µg/mL) — number only.

INSERT INTO measurements (molecule, target_system, unit_abbrev, reported_result) VALUES
  ('N=C(N)c1ccc(OCCO/N=C(\C(=O)N[C@@H]2C(=O)N(S(=O)(=O)O)[C@@H]2C(N)=O)c2csc(N)n2)cc1 [Example 66]', 'Bacteria', 'µg/mL', 2);

I'm curious: which MIC strain 19 (E. coli J62-TEM-3 + 4 μg/mL clavulanic acid) was measured for C[C@H]1[C@H](NC(=O)/C(=N\OCCOc2ccc(C(=N)N)cc2Br)c2csc(N)n2)C(=O)N1S(=O)(=O)O [Example 49] tested on Bacteria?
2
